Test system: LIMK1;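 further: KINOMEscan kinase panel screen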
Conditions: concentration: 1 μM, replicates: in singlicate; n = 1
Property: %Inh; scope: individual molecules
OBSERVED PROPERTY: %Inh (%)

[[record]]
molecule = "CC(C)NCC(Cc1ccccc1)NC(=O)c1cc(Br)c(-c2ccnc3[nH]ccc23)s1.Cl.Cl (centres unmarked)"
observed_property = "%Inh"
result_unit = "%"
result = 0

[[record]]
molecule = "CC(C)c1nc(-c2cccc(NS(=O)(=O)c3c(F)cccc3F)c2)c(-c2ccnc(Nc3ccc(N4CCOCC4)nc3)n2)s1.Cl"
observed_property = "%Inh"
result_unit = "%"
result = 100

[[record]]
molecule = "COC(=O)Nc1nc2ccc(Oc3ccc(CC(=O)Nc4cc(C(F)(F)F)ccc4F)cc3)cc2[nH]1"
observed_property = "%Inh"
result_unit = "%"
result = 1

[[record]]
molecule = "Cn1cc(-c2ccc3c(c2)CCN3C(=O)Cc2cc(F)cc(F)c2F)c2c(N)ncnc21"
observed_property = "%Inh"
result_unit = "%"
result = 0

[[record]]
molecule = "CN(c1ccc(F)c(NC(=O)c2cccc(OC(C)(C)C#N)c2Cl)c1)c1ccc2nc(NC(=O)C3CC3)sc2n1"
observed_property = "%Inh"
result_unit = "%"
result = 0

[[record]]
molecule = "COc1cccc(NC(=O)NCCNc2ccnc(Nc3ccc(F)cc3)n2)c1"
observed_property = "%Inh"
result_unit = "%"
result = 0

[[record]]
molecule = "COC(=O)Nc1nc2ccc(Oc3ccc(NC(=O)Nc4cc(C(F)(F)F)ccc4F)cc3)cc2[nH]1.Cl"
observed_property = "%Inh"
result_unit = "%"
result = 37

[[record]]
molecule = "CCNC(=O)/C=C/c1n[nH]c2cc(Sc3ccccc3C(=O)NC)ccc12"
observed_property = "%Inh"
result_unit = "%"
result = 25

